Origin of values: PubChem BioAssay (NCI)

- Test system: MDA-MB-231 breast
- test.summary: NCI tumour cell line growth inhibition, 48 h
experimental.readout: TGI

Below: 8 compounds and their reported TGI.
compound=Cc1ccc(Nc2nc(=O)[nH]c(=O)[nH]2)cc1N system="MDA-MB-231 breast" experimental_readout=TGI endpoint_result="> 100 µM"
compound=CC(CC(=O)O)(CC(=O)O)C(=O)O system="MDA-MB-231 breast" experimental_readout=TGI endpoint_result="> 100 µM"
compound=N#Cc1c(=O)c2cccnc2n2c1[nH]c1ccccc12 system="MDA-MB-231 breast" experimental_readout=TGI endpoint_result="> 100 µM"
compound="CC(C)=CC(=O)O[C@@H]1CC(C)(C)CC2C3=CCC4[C@]56CC[C@](O)(OC5)C(C)(C)C6CC[C@@]4(C)C3(C)CC[C@]21C(=O)O (stereo partly specified)" system="MDA-MB-231 breast" experimental_readout=TGI endpoint_result="> 100 µM"
compound=Cc1nnc([S-])s1.[Au+].c1ccc([PH+](c2ccccc2)c2ccccc2)cc1 system="MDA-MB-231 breast" experimental_readout=TGI endpoint_result="3.05 µM"
compound="Cc1cccc(NC(=O)CC(=O)N2N=C(N3c4ccccc4Sc4ccccc43)CC2c2ccccc2)c1 (stereo unspecified)" system="MDA-MB-231 breast" experimental_readout=TGI endpoint_result="> 100 µM"
compound="COc1ccc(C2=CC(c3cc(OC)c(OC)c(OC)c3)n3ncnc3N2)cc1 (stereo unspecified)" system="MDA-MB-231 breast" experimental_readout=TGI endpoint_result="83.5 µM"
compound=Cc1cc(CS(=O)(=O)/C=C/c2ccccc2[N+](=O)[O-])c(CS(=O)(=O)/C=C/c2ccccc2[N+](=O)[O-])cc1C system="MDA-MB-231 breast" experimental_readout=TGI endpoint_result="> 51.2 µM"

Prompt: Look at this compound and give its reported TGI. CC1(C)N=C(N)N=C(N)N1c1ccc(OCC(=O)Nc2cccc(S(=O)(=O)F)c2)c(Cl)c1
Completion: > 100 µM

Prompt: Moving on to CCOC(=O)/C=C1\Nc2ccccc2C12CCc1c([nH]c3ccccc13)C2C(=O)OCC (stereo unspecified)
Completion: > 100 µM

Prompt: Also COc1ccccc1C(=O)c1c(N2CCCCC2)c(=O)c1=O ?
Completion: > 100 µM

Prompt: Next record, please: CCCC/C(=N\N=C(N)N)c1ccc(F)cc1
Completion: 18.9 µM

Prompt: Likewise for CSc1c(C(C)=O)c(O)n(-c2ccc(Cl)cc2)c(=O)c1C#N ?
Completion: > 100 µM

Prompt: Request: CC(CS(=O)(=O)Cc1ccccc1)C(N)=O (stereo unspecified)
Completion: > 100 µM

Prompt: Let us now turn to CCCCCCCCCCCCCCCCP(=O)(O)OP(=O)(O)OCC1OC(n2ccc(N)nc2=O)C(O)C1O (stereo unspecified)
Completion: > 100 µM

Prompt: Could you do the same for COC(=O)c1cc(Nc2ccc(O)c3c2C(=O)c2c([N+](=O)[O-])ccc(O)c2C3=O)cc(C(=O)OC)c1 , please?
Completion: > 100 µM

Prompt: Also, COc1cc(C(=O)Nc2nnc(S(N)(=O)=O)s2)cc(OC)c1OC please.
Completion: > 100 µM

----------
- System: DU-145 prostate
- test.summary: NCI tumour cell line growth inhibition, 48 h
Where a SMILES comes first, the peptide text is derived from it. [ ]: non-standard residue; d: D form. The star is where a group is joined. ξ: configuration not given here. NMeY = CN[C@@H](Cc1ccc(O)cc1)C(=O)O; Cbz = O=C(OCc1ccccc1)*; ξA = CC(N)C(=O)O
# Lookup of reported TGI keyed by entry

Reference set (5 entries):
molecule=CCCCn1cc(C(=O)O)c(=O)c2c3sccc3ccc21 endpoint_result="> 100 µM"
molecule=Cc1cc(S(=O)(=O)Nc2n[nH]c(Nc3ccccc3)n2)c(S)cc1Cl endpoint_result="> 10 µM"
molecule=CC[C@]12C=CCN3CC[C@]4(C(=C(C(=O)OC)C1)Nc1cc(O)ccc14)[C@@H]32 endpoint_result="45.3 µM"
molecule=O=C(OCc1ccccc1CN1CCOCC1)c1ccc(Br)cc1 endpoint_result="> 100 µM"
molecule="COc1ccc(C[C@@H](C(=O)NCC(N)=O)N(C)C(=O)[C@@H]2CCCN2C(=O)[C@H](CC(C)C)NC(=O)C(C)NC(=O)OCc2ccccc2)cc1 (some centres undefined) (Cbz-[ξA]LP[NMeY](Me)G-NH2)" endpoint_result="> 100 µM"

Prompt: Quick one: TGI for Cc1nnc([S-])s1.[Au+].c1ccc([PH+](c2ccccc2)c2ccccc2)cc1 ?
Completion: 3.23 µM

Prompt: Same again, this time with O=c1oc2ccccc2cc1-c1nc2ccc([N+](=O)[O-])cc2o1
Completion: > 100 µM

Prompt: Would you kindly repeat that for CC1(C)CC(=O)C(/C=N/c2nc(-c3ccc(Br)cc3)cs2)=C(O)C1 ?
Completion: > 100 µM

Prompt: Continue with O=C1C/C(=C\O)C(=O)c2ccccc2N1
Completion: > 100 µM

Prompt: Lookup c1ccc2c(c1)CC1c3[nH]c4ccccc4c3CCN21 (centres undefined)
Completion: > 10 µM

Prompt: Field entry: CCN(CC)CCOc1ccc(/C=C2\C[C@H]3[C@@H]4CC=C5C[C@@H](OC(C)=O)CC[C@]5(C)[C@H]4CC[C@]3(C)[C@H]2OC(C)=O)cc1OC
Completion: 12.2 µM

Prompt: Another molecule: COc1c(O)c(OC)c(C(=O)/C=C/c2ccccc2)c(O)c1OC
Completion: > 100 µM

Prompt: Again, but for CC1=NNC(N)=N/C1=C/C(Sc1ccc(Cl)cc1)c1cccs1 (centres undefined)
Completion: 68.2 µM

Prompt: What about this molecule? O=C1c2cc(Cl)ccc2-n2c(noc2=O)C2CSCN12 (centres undefined)
Completion: > 100 µM

----------
- Tested on: SK-MEL-2 melanoma
- test.summary: NCI tumour cell line growth inhibition, 48 h
experimental.readout: TGI

compound="O=C1c2ccccc2-c2ccc(NC(=O)C3CCCCC3C(=O)O)cc21 (stereo not drawn)" experimental_readout=TGI endpoint_result="> 100 µM"

Prompt: Give the measured TGI of O=C1C/C(=C\O)C(=O)c2ccccc2N1 .
Completion: > 100 µM

Prompt: Repeat for the following compound: COc1ccccc1C(=O)c1c(N2CCCCC2)c(=O)c1=O
Completion: > 100 µM

----------
Catalogue of GI50 readings, one per entry.
- Tested on: HCC-2998 colon
- test.summary: NCI tumour cell line growth inhibition, 48 h

compound_structure_string=Cc1nnc([S-])s1.[Au+].c1ccc([PH+](c2ccccc2)c2ccccc2)cc1 experimental_readout=GI50 endpoint_result="1830 nM"
compound_structure_string=O=C1c2c(O)cccc2C(C(=O)CCCCC(=O)C2c3cccc(O)c3C(=O)c3c(O)cccc32)c2cccc(O)c21 experimental_readout=GI50 endpoint_result="1070 nM"

// switching to the query compound
Prompt: Consider the compound Cc1ccc(NCSc2ccc(Cl)cc2)cc1 and give its measured GI50.
Completion: > 100000 nM

----------
- Tested on: HS 578T breast
- test.summary: NCI tumour cell line growth inhibition, 48 h; in the data active = GI50 below about 0.43 µM; inactive = the rest
Respond with a class label; see YES for active, NO for inactive

Record excerpt, results attached:
molecule=COC(=O)[C@H](Cc1ccccc1)NC(=O)c1csc([C@@H](C[C@H](C(C)C)N(C)C(=O)[C@@H](NC(=O)[C@H]2CCCCN2C)C2CC2)OC(C)=O)n1 class_name=YES
molecule=COC(=O)c1cc(Nc2ccc(O)c3c2C(=O)c2c([N+](=O)[O-])ccc(O)c2C3=O)cc(C(=O)OC)c1 class_name=NO
molecule=Nc1ncnc2occ(-c3ccc(NC(=O)Nc4cc(C(F)(F)F)cc(C(F)(F)F)c4)cc3)c12 class_name=NO
molecule=CC[C@]12C=CCN3CC[C@]4(C(=C(C(=O)OC)C1)Nc1cc(O)ccc14)[C@@H]32 class_name=NO

Consider the additional molecule presented here.
Prompt: Please state the recorded outcome for this molecule: COc1cc(C2C3=C(COC3=O)N(CCO)c3cc4c(cc32)CCC4)cc(OC)c1O (stereo not given)
Completion: YES

----------
- Tested on: DLD-1 colon
- test.summary: NCI tumour cell line growth inhibition, 48 h
experimental.readout: TGI

Solved cases (6 shown):
compound_structure_string=c1ccc(SCCCC(Sc2ccccc2)Sc2ccccc2)cc1 experimental_readout=TGI endpoint_result="> 100 µM"
compound_structure_string=O=C(CCCCCCCCCCc1ccccc1)c1c(O)cccc1O experimental_readout=TGI endpoint_result="39.7 µM"
compound_structure_string=CCOc1ccc(NC(=O)c2c(N/N=C/c3ccc(OC)cc3)nc(=O)[nH]c2C)cc1 experimental_readout=TGI endpoint_result="> 100 µM"
compound_structure_string=CC(C)c1ccc(/C=C(\NC(=O)c2ccccc2)c2nc3ccccc3[nH]2)cc1 experimental_readout=TGI endpoint_result="> 100 µM"
compound_structure_string=Cc1nc2c(n1Cc1ccc(Cl)cc1)C(=O)c1ccccc1C2=O experimental_readout=TGI endpoint_result="> 75 µM"
compound_structure_string=Cc1nnc2n1N=C(CC(=O)c1ccc(O)cc1O)CN2N experimental_readout=TGI endpoint_result="> 100 µM"

Prompt: Any idea what its TGI is? The compound is O=S1(=O)NNC(=NCc2ccc(F)cc2)c2ccccc21
Completion: > 100 µM

Prompt: Now consider COc1ccc([Se]c2ccc(OC)cc2OC)c(OC)c1 .
Completion: > 100 µM
